So I've got a bunch of compounds here, and I need their Emax values.
Target: STING protein (Homo sapiens, UniProt Q86WV6, H232R)
Construct: host or cells: THP-1 dual reporter cells, TMEM173 modified from HAQ to R232 (THP1-dual-KI R232)
Sequence (Q86WV6 whole entry H232R): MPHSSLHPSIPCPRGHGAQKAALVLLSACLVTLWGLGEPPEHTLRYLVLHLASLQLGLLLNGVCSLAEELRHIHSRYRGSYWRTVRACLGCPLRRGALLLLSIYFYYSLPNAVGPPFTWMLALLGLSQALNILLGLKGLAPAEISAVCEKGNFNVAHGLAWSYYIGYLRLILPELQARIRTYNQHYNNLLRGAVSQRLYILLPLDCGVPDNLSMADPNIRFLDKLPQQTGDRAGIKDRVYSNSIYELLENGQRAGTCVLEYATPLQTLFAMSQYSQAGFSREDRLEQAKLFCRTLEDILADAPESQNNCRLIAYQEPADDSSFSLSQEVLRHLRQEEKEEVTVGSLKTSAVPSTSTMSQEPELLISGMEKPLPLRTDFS
Experiment: Cell based reporter assay of IRF activation (THP1-dual-KI R232, IRF luciferase)
Conditions: THP-1; read-out: THP1-dual-KI R232_IRF(Luciferase)_Activity Maximum measured (%)

CCOc1c(Cl)ccc2c(=O)c3ccc(N(C)CCn4ccnc4)nc3n(CC(=O)O)c12; 5 to 25%
CSc1c(Cl)ccc2c(=O)c3ccc(N(CC4CC4)CC4COC4)nc3n(CC(=O)O)c12; > 50%
Cc1ccc2c(=O)c3ccc(N(C)C)nc3n(CC(=O)O)c2c1N(C)C; > 50%

Qu. Can you look up the measured Emax of CO[C@H]1C[C@@H](N(C)c2ccc3c(=O)c4ccc(Cl)c(SC)c4n(CC(=O)O)c3n2)C1 (single isomer, unassigned) for me?
Ans. > 50%
